# Tested on: IL-12 mRNA
# MEASUREMENT_NOTES: IL-12 mRNA in LPS-activated primary murine macrophages
# Assay type: cell-based, mouse
# CONDITION_SUMMARY: 300 nM oligomeric compound, stimulation with IFN-gamma and LPS; average of 2 experiments; normalized to LPS-treated cells without oligomeric compound
In the oligonucleotide strings, read from the 5' end, every base follows the letter of its sugar. An asterisk marks phosphorothioate; unmarked linkages are phosphodiester. Other units and linkages are bracketed, terminal groups are in braces. A string of capitals states the bases alone. e = 2'-O-(2-methoxyethyl) (MOE); [5mC] = 5-methylcytosine
Recorded IL-12 mRNA expression, +IFN % UTC, one value per entry.
Lab book: enter the figure in % UTC, no units written.

Example entries begin here.
[[record]]
substance = "328137 (eG*eT*eA*eA*eG*e[5mC]*eG*e[5mC]*eA*eG*e[5mC]*eT*e[5mC]*e[5mC]*eA*e[5mC]*eA*eG*eG*e[5mC]*eT; anti-miR) [compound 328137]"
observable = "IL-12 mRNA expression, +IFN % UTC"
value_reported = 12

[[record]]
substance = "327913 (antisense eA*eA*e[5mC]*e[5mC]*eG*eA*eT*eT*eT*e[5mC]*eA*eA*eA*eT*eG*eG*eT*eG*e[5mC]*eT*eA*eG) [compound 327913]"
observable = "IL-12 mRNA expression, +IFN % UTC"
value_reported = 73

[[record]]
substance = "340345 (antisense GGAACUUAGCCACUGUGAA; all 2'-MOE, all phosphorothioate, methylation of C and T or U not given here) [compound 340345]"
observable = "IL-12 mRNA expression, +IFN % UTC"
value_reported = 78

[[record]]
substance = "327958 (antisense e[5mC]*e[5mC]*eG*eG*e[5mC]*eT*eG*e[5mC]*eA*eA*e[5mC]*eA*e[5mC]*eA*eA*eG*eA*e[5mC]*eA*e[5mC]*eG*eA) [compound 327958]"
observable = "IL-12 mRNA expression, +IFN % UTC"
value_reported = 60


Indicate its recorded IL-12 mRNA expression, +IFN % UTC; the substance in question is 327919 (antisense eG*eA*eA*eA*e[5mC]*e[5mC]*e[5mC]*eA*eG*e[5mC]*eA*eG*eA*e[5mC]*eA*eA*eT*eG*eT*eA*eG*e[5mC]*eT) [compound 327919] 37

Indicate its recorded IL-12 mRNA expression, +IFN % UTC; the substance in question is 327903 (antisense eA*eA*e[5mC]*eT*eA*eT*eA*e[5mC]*eA*eA*e[5mC]*e[5mC]*eT*eA*e[5mC]*eT*eA*e[5mC]*e[5mC]*eT*e[5mC]*eA) [compound 327903] 23

Indicate its recorded IL-12 mRNA expression, +IFN % UTC; the substance in question is 327912 (antisense eA*eA*e[5mC]*eT*eA*eT*eA*e[5mC]*eA*eA*eT*e[5mC]*eT*eA*e[5mC]*eT*eA*e[5mC]*e[5mC]*eT*e[5mC]*eA) [compound 327912] 39

###

Recorded aP2 mRNA, one value per entry.
# Tested on: aP2
# MEASUREMENT_NOTES: aP2 mRNA expression in adipocytes (real-time PCR)
# Format: cell-based, human
# CONDITION_SUMMARY: differentiating adipocytes transfected with oligomeric compound; Table 75
In the oligonucleotide strings, read from the 5' end, every base follows the letter of its sugar. An asterisk marks phosphorothioate; unmarked linkages are phosphodiester. Other units and linkages are bracketed, terminal groups are in braces. A string of capitals states the bases alone. e = 2'-O-(2-methoxyethyl) (MOE); [5mC] = 5-methylcytosine

Example entries begin here.
[[record]]
substance = "327891 (antisense eG*eG*e[5mC]*e[5mC]*eG*eT*eG*eA*e[5mC]*eT*eG*eG*eA*eG*eA*e[5mC]*eT*eG*eT*eT*eA) [compound 327891]"
value_reported = "56 percentage of untreated control (UTC)"

[[record]]
substance = "328120 (antisense eA*eA*eG*eA*eA*eG*eG*eA*eA*eG*eG*eA*eG*eG*eG*eA*eA*eA*eG*e[5mC]*eA) [compound 328120]"
value_reported = "80 percentage of untreated control (UTC)"

[[record]]
substance = "328113 (antisense e[5mC]*eA*eA*eA*eA*eA*eT*eT*eA*eT*e[5mC]*eA*eG*e[5mC]*e[5mC]*eA*eG*eT*eT*eT*eA) [compound 328113]"
value_reported = "87 percentage of untreated control (UTC)"

[[record]]
substance = "327950 (antisense eT*e[5mC]*eA*eG*eT*eT*eT*eT*eG*e[5mC]*eA*eT*eA*eG*eA*eT*eT*eT*eG*e[5mC]*eA*e[5mC]*eA) [compound 327950]"
value_reported = "95 percentage of untreated control (UTC)"


Indicate its recorded aP2 mRNA; the substance in question is 328098 (antisense eG*eA*eG*eA*eA*eT*e[5mC]*eA*eA*eT*eA*eG*eG*eG*e[5mC]*eA*eT*eG*e[5mC]*eA*eA) [compound 328098] 23 percentage of untreated control (UTC)
